B1: PhoQ; a variant is named by its letters at X, in order, P23837 (parent)
chain: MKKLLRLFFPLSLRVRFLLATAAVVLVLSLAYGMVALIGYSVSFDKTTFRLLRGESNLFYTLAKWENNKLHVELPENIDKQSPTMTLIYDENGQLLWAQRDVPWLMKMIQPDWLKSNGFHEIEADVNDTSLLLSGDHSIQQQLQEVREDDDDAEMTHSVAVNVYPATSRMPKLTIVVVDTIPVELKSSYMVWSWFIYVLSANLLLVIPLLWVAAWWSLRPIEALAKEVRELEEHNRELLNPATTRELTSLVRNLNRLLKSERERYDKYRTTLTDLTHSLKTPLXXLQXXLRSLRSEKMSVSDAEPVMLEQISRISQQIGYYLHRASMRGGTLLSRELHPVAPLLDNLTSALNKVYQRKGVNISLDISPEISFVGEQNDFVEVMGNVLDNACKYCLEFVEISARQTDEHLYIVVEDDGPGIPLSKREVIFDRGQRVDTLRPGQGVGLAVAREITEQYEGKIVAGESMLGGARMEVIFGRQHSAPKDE

Variants of: B1
assay procedure: enrichment ratio after two sorts for PhoP signalling (ratio (wild type AVST 3.29)); higher = more functional
conditions: with PhoP (E. coli)
The full ranking holds about 140,000 sequences; the median of “enrichment ratio after two sorts for PhoP signalling” is about 0, and the highest 2% start at about 11. The entries come from a sample that favours the highest values as a whole.
What enrichment ratio was measured for each of the following?

INSERT INTO assay_data (mut, readout, val) VALUES
  ('RDCA', 'enrichment ratio', '≤ 0.25'),
  ('ASMI', 'enrichment ratio', 13.5);

Provide reported enrichment ratio for each item, in the same order as listed.
1. YRPV
2. RQLF
3. WRVD
4. LHSI
5. ASMS
6. WEIR
7. TTNN
8. NGMI

A.
1: ≤ 0.25; 2: ≤ 0.25; 3: ≤ 0.25; 4: ≤ 0.25; 5: 5.31; 6: ≤ 0.25; 7: 17.8; 8: 0.49

For each entry beneath this line, provide reported enrichment ratio.
1. LAMD
2. GNLR
3. ASMV
4. GGMI
5. IHNL
6. AMER
7. NMII
8. TEHF

A.
["≤ 0.25", "≤ 0.25", 7.76, 12.3, "≤ 0.25", "≤ 0.25", "≤ 0.25", 3.55]
